Data provenance is the supplement of paper PMC10065799.

// reported phosphorylation enrichment for each item listed
Molecular target: Fes (UniProt P07332)
Sequence (P07332 whole entry, looked up): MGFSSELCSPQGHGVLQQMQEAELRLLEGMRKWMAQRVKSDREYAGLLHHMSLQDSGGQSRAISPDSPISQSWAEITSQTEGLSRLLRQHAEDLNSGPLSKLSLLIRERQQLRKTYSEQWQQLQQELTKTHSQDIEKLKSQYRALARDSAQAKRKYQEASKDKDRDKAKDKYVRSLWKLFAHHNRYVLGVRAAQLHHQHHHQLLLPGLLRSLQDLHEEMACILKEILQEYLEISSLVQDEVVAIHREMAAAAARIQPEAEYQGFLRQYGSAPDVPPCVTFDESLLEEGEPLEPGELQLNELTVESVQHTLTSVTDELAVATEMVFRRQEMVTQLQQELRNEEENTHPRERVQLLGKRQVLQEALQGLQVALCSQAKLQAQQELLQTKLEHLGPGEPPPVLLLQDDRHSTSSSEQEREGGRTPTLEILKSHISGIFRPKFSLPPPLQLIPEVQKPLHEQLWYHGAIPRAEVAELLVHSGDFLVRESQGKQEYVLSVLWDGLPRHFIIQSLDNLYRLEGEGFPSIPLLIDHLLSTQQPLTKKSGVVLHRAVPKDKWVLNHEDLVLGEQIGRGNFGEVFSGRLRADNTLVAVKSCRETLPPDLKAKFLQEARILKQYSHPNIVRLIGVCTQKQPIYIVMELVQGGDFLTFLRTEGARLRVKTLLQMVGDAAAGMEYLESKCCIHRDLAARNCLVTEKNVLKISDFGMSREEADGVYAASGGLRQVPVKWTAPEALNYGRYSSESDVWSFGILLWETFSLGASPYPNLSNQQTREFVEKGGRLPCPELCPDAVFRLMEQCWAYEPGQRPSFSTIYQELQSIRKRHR
Assay: phosphorylation enrichment, bacterial display (enrichment ratio); higher = better substrate or ligand; peptides without Tyr show the background;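 note: 11-residue human phosphosite peptides and single-mutation variants displayed on the E. coli surface, counted by deep sequencing, each peptide's frequency after selection divided by its frequency in the unselected input library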;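 note: frequency after pTyr selection over input frequency; kinase dosed for 20-30% of maximal phosphorylation in three min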

sequenceContent: SSPRRYTIAAL [TTR_Y125_G121S]
phosphorylation enrichment: 0.567
--
sequenceContent: IGEVVYQRAVM [GRIN2A_Y502]
phosphorylation enrichment: 0.856
--
sequenceContent: YCVDCYKNFVA [FHL1_Y213]
phosphorylation enrichment: 0.832

Query sequence follows.
Fes (UniProt P07332) phosphorylation enrichment of VDLIVYLWTNP [TK2_Y181_R183W] is 1.29

----------
Biological target: FGFR3 (UniProt P22607)
Sequence (P22607 whole entry, looked up): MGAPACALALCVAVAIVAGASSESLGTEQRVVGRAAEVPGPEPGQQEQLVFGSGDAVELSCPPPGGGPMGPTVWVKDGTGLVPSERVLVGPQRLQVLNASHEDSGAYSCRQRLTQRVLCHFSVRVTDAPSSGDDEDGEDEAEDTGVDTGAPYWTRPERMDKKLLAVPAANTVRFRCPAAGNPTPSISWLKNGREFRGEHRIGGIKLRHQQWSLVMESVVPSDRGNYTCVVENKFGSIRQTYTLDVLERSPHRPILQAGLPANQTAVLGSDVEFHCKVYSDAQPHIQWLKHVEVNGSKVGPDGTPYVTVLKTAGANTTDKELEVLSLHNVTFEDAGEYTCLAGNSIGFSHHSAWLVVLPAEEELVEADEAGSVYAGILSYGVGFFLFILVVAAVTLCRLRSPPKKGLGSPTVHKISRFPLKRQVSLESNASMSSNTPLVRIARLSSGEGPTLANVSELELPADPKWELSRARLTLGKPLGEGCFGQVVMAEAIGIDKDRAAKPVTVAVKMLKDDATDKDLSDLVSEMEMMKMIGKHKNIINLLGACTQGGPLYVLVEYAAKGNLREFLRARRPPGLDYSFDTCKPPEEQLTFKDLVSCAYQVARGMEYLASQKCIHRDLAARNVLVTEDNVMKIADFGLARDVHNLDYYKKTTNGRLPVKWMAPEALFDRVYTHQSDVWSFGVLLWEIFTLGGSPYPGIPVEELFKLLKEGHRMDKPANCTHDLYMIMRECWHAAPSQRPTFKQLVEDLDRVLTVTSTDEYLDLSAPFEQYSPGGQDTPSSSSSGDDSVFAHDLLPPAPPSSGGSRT
Assay: phosphorylation enrichment, bacterial display (enrichment ratio); higher = better substrate or ligand; peptides without Tyr show the background
measuredEndpoint: phosphorylation enrichment
The answer should be written as a number, with no unit following it.

Known phosphorylation enrichment results, listed for orientation:
sequenceContent: DAVKHYMQFRK [CNGA2_Y395]
observed: 0.427
//
sequenceContent: CTTIHYNYVCN [TP53_Y234_M237V]
observed: 0.648
//
sequenceContent: ADARMYGVLPR [PLP1_Y207_W212R]
observed: 0.44
//
sequenceContent: LLVVLNKFRCF [PSEN1_Y154_Y154N_YF]
observed: 1.18

Query sequence follows.
// recorded phosphorylation enrichment for TVVVPYEPPEV [TP53_Y220_S215T] : 0.62
